assayed-system: Cocaine esterase (Homo sapiens)
Sequence (O00748 whole entry): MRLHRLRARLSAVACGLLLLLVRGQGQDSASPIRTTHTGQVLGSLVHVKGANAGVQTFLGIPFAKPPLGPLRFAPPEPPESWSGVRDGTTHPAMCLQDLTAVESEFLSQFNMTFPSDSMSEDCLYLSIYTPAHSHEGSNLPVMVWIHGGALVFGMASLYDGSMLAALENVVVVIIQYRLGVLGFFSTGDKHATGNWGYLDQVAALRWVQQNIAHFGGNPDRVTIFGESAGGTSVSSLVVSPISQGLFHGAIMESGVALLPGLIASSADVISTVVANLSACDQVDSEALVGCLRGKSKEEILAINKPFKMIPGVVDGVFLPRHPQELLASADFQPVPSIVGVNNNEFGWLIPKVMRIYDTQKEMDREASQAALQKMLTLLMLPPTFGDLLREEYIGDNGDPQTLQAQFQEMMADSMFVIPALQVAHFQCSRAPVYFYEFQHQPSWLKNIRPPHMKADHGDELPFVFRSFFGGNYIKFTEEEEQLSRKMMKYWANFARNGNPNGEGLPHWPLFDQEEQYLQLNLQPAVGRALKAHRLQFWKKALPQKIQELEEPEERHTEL
protocol-details: Activity of human recombinant carboxylesterase 2 assessed as AUDA hydrolysis
Set-up: concentration or dose not given beside the values
Here the recorded Activity is given for each entry.
assay-readout: Activity (%)

[[record]]
molecule = "O=C(O)CCCCCCCCCCCNC(=O)NC12CC3CC(CC(C3)C1)C2"
quantitative_readout = 100

[[record]]
molecule = "CC(C)COC(=O)CCCCCCCCCCCNC(=O)NC12CC3CC(CC(C3)C1)C2"
quantitative_readout = 33

[[record]]
molecule = "CCCCOC(=O)CCCCCCCCCCCNC(=O)NC12CC3CC(CC(C3)C1)C2"
quantitative_readout = 39

[[record]]
molecule = "CC(C)OC(=O)CCCCCCCCCCCNC(=O)NC12CC3CC(CC(C3)C1)C2"
quantitative_readout = 39

[[record]]
molecule = "CCC(C)OC(=O)CCCCCCCCCCCNC(=O)NC12CC3CC(CC(C3)C1)C2 (stereo not given)"
quantitative_readout = 26


###

assayed-system: Bifunctional epoxide hydrolase 2 (Mus musculus)
Sequence (P34914 whole entry): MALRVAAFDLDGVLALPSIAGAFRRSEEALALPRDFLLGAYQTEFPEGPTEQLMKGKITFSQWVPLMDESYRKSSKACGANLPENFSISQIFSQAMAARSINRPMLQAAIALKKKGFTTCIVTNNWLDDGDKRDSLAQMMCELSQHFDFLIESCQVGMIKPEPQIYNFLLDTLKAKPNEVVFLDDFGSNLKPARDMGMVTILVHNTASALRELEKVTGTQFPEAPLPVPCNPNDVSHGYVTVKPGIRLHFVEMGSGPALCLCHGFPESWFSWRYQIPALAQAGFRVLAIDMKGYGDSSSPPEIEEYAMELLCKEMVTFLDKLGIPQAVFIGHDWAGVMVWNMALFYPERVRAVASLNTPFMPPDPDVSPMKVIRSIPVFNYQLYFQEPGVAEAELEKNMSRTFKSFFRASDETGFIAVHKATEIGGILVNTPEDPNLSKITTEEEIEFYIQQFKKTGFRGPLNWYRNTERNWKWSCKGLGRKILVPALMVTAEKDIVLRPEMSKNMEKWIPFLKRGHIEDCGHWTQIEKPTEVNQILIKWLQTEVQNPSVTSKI
protocol-details: Inhibition of mouse soluble epoxide hydrolase by spectrometric based assay
Here the recorded IC50 is given for each entry.
assay-readout: IC50 (nM)

[[record]]
compound = "O=C(NCCCCCCCCCCCC(=O)OC12CC3CC(CC(C3)C1)C2)NC12CC3CC(CC(C3)C1)C2"
assay_readout = "IC50"
quantitative_readout = 50

[[record]]
compound = "O=C(CCCCCCCCCCCNC(=O)NC12CC3CC(CC(C3)C1)C2)NCC(=O)N[C@H]1O[C@@H](CO)[C@H](O)[C@@H](O)[C@@H]1O"
assay_readout = "IC50"
quantitative_readout = 50

[[record]]
compound = "CCCCCCCCC(NC(=O)CCCCCCCCCCCNC(=O)NC12CC3CC(CC(C3)C1)C2)C(=O)N[C@H]1O[C@@H](CO)[C@H](O)[C@@H](O)[C@@H]1O (stereo partly drawn)"
assay_readout = "IC50"
quantitative_readout = 50


###

assayed-system: Bifunctional epoxide hydrolase 2 (Homo sapiens, UniProt P34913)
Sequence (P34913 whole entry): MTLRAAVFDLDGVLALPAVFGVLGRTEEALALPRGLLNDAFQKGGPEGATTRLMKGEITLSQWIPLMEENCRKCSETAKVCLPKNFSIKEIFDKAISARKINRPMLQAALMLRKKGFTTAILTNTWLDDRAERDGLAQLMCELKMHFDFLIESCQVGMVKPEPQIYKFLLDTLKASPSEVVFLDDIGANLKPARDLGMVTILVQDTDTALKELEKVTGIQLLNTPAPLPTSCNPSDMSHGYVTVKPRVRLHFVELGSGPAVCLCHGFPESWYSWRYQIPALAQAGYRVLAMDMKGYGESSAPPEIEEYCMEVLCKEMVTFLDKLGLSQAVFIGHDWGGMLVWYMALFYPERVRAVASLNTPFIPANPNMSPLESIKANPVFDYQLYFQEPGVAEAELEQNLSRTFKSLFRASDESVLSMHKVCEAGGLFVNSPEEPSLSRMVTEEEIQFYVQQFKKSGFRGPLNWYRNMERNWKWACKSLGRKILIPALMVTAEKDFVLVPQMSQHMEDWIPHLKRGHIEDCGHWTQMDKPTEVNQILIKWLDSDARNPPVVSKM
protocol-details: Inhibition of human soluble epoxide hydrolase by fluorescent based assay
pIC50: −log10 of the molar value.
Here the recorded pIC50 is given for each entry.
assay-readout: pIC50

[[record]]
compound = "CCOC(=O)CCCCCCCCCCCNC(=O)NC12CC3CC(CC(C3)C1)C2"
quantitative_readout = 8.80

[[record]]
compound = "CCCOC(=O)CCCCCCCCCCCNC(=O)NC12CC3CC(CC(C3)C1)C2"
quantitative_readout = 9.00

[[record]]
compound = "C=CCOC(=O)CCCCCCCCCCCNC(=O)NC12CC3CC(CC(C3)C1)C2"
quantitative_readout = 9.00

[[record]]
compound = "CCCCCCCCC(NC(=O)CCCCCCCCCCCNC(=O)NC12CC3CC(CC(C3)C1)C2)C(=O)N[C@H]1O[C@@H](CO)[C@H](O)[C@@H](O)[C@@H]1O (some centres undefined)"
quantitative_readout = 8.12

[[record]]
compound = "CCC(C)OC(=O)CCCCCCCCCCCNC(=O)NC12CC3CC(CC(C3)C1)C2 (centres undefined)"
quantitative_readout = 9.15

[[record]]
compound = "O=C(CCCCCCCCCCCNC(=O)NC12CC3CC(CC(C3)C1)C2)NCC(=O)N[C@H]1O[C@@H](CO)[C@H](O)[C@@H](O)[C@@H]1O"
quantitative_readout = 8.12

[[record]]
compound = "O=C(NCCCCCCCCCCCC(=O)OCc1ccccc1)NC12CC3CC(CC(C3)C1)C2"
quantitative_readout = 8.70

[[record]]
compound = "CC(C)COC(=O)CCCCCCCCCCCNC(=O)NC12CC3CC(CC(C3)C1)C2"
quantitative_readout = 8.92

[[record]]
compound = "CC(C)OC(=O)CCCCCCCCCCCNC(=O)NC12CC3CC(CC(C3)C1)C2"
quantitative_readout = 8.96

